Give measured Binding affinity (RU) for each item. Keep answers brief.
biological target: acetylcholine receptor; assay: SPR, AchR immobilised on CM5 chip, peptide at 10 uM
Numbers only, in RU.

The cases that follow already have their Binding affinity (RU) on record.
1. RFSMR [5mer-877]
17
2. RKVVYK [6mer-1-450]
151
3. KCWVR [5mer-1154]
12
4. RRQRSR [6mer-1-411]
121
5. KHSEK [5mer-1170]
28
6. RRRIYR [6mer-1-424]
135

Incoming: Form field: reported Binding affinity (RU) of KCHDR [5mer-1161]
Outgoing: 21
